Values from the supplement of paper PMC13380429

Below: a set of entries, each annotated with reported cell viability.
# Test system: HepG2
# ASSAY METHOD TEXT: cell viability relative to DMSO; higher = less toxic
# DETAILS: 72 h; 1 nM
Return type: number; implicit unit %.

Worked cases, cell viability given:
compound="C/C=C/c1cc(OC)c(OC)cc1OC [alpha-asarone]" target_or_system=HepG2 observed_property="cell viability" test_result=91.3
compound="N=C(N)Nc1ccc2[nH]c3c(c2c1)C[C@@]1(O)[C@H]2Cc4ccc(O)c5c4[C@@]1(CCN2CC1CC1)[C@H]3O5 [GNTI]" target_or_system=HepG2 observed_property="cell viability" test_result=99
compound="CCOC(=O)c1ncn2c1CN(C)C(=O)c1cc(N=[N+]=[N-])ccc1-2 [Ro-15-4513]" target_or_system=HepG2 observed_property="cell viability" test_result=107
compound="CCCCNc1ccc(C(=O)OCCN(C)C)cc1 [tetracaine]" target_or_system=HepG2 observed_property="cell viability" test_result=99.5
compound="CCCC(C(=O)OCCN(CC)CC)(c1ccccc1)c1ccccc1 [proadifen]" target_or_system=HepG2 observed_property="cell viability" test_result=101
compound="OC[C@@H](O)[C@@H](O)CO [erythritol]" target_or_system=HepG2 observed_property="cell viability" test_result=108

Test item CNC(=O)c1cccc2cc(Oc3ccnc4cc(OCC5(N)CC5)c(OC)cc34)ccc12 [lucitanib] ; HepG2; reported cell viability was 95.7

Result for O=c1ccc2ccc(OCCCCN3CCN(c4cccc5sccc45)CC3)cc2[nH]1 [brexpiprazole] , tested on HepG2, cell viability: 100

Result for C=CC(=O)Nc1cccc(C)c1Nc1ncc2cc(-c3c(Cl)c(OC)cc(OC)c3Cl)ccc2n1 [BLU9931] , tested on HepG2, cell viability: 102
